- tested system: JAK2 kinase domain (JH1) (Homo sapiens, UniProt O60674)
- Construct: recombinant purified His or GST-tagged catalytic domain for each enzyme
- Sequence (O60674 849-1124 limits assumed): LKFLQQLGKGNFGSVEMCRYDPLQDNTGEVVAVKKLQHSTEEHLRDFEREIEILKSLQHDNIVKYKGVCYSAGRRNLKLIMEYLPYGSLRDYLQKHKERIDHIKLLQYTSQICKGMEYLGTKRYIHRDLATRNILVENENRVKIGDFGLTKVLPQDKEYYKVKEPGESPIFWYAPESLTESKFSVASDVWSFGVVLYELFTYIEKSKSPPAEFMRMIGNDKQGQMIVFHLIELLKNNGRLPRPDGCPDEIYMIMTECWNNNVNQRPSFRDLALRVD
- protocol: HTRF-based selectivity assay, JAK2 catalytic domain
- measurement setup: recombinant catalytic domain, ATP 14.7 μM
- Description: Example B-2: HTRF-Based Selectivity Assay The ability of compounds to inhibit the activity of JAK1, JAK2, JAK3 and TYK2 is measured using a recombinant purified His or GST-tagged catalytic domain for each enzyme (JAK1, JAK2 and TYK2 are generated in-house; JAK3 was purchased from Carna biosciences, Cat #08-046) in an HTRF format biochemical assay. The reactions employs a commercial peptide substrate from Cisbio (Cat #62TK0PEC). […]
pIC50: −log10 of the molar value.
property label: pIC50

Examples with answers:
[2H]C([2H])([2H])NC(=O)c1cnc(NC(=O)C2CC2)cc1Nc1cccc2c1N(C)Cc1nn(C)nc1-2: < 6.00
[2H]C([2H])([2H])NC(=O)c1nnc(NC(=O)C2CC2)cc1Nc1cccc2c1N(C)Cc1ncnn1-2: < 6.00
[2H]C([2H])([2H])NC(=O)c1cnc(NC(=O)C2CC2)cc1Nc1nccc2c1N(C)Cc1nc(C)nn1-2: < 6.00

// returns pIC50 for [2H]C([2H])([2H])NC(=O)c1cnc(NC(=O)C2CC2)cc1Nc1nccc2c1N(C)Cc1nn(C)nc1-2 with JAK2 kinase domain (JH1) (Homo sapiens, UniProt O60674); value = < 6.00

// returns pIC50 for CNC(=O)c1nnc(NC(=O)C2CC2)cc1Nc1cccc2c1N(C)CCn1cnnc1-2 with JAK2 kinase domain (JH1) (Homo sapiens, UniProt O60674); value = 6.52 to 7.52

// returns pIC50 for [2H]C([2H])([2H])NC(=O)c1nnc(NC(=O)[C@H]2C[C@H]2F)cc1Nc1cccc2c1N(C)Cc1nc(C)nn1-2 (single isomer, unassigned) with JAK2 kinase domain (JH1) (Homo sapiens, UniProt O60674); value = < 6.00

// returns pIC50 for [2H]C([2H])([2H])NC(=O)c1cnc(NC(=O)C2CC2)cc1Nc1cccc2c1N(C)CCn1cnnc1-2 with JAK2 kinase domain (JH1) (Homo sapiens, UniProt O60674); value = < 6.00
